Reference source: PubChem BioAssay (NCI)

# procedure text: NCI Yeast Anticancer Drug Screen. Data for the bub3 strain (AID 167)
# experimental context: S. cerevisiae bub3 mutant strain, at 5.0 µM (retest, dose inferred, filed as 0.5), hits give high values
About 79,000 compounds went through this panel and 15% of them were active in at least one assay; those are over-represented in the sample as a whole. Calls of active or inactive are those of the source. Rule as the data show it: active = growth inhibition above about 70%; inactive = the rest.
metric name: growth inhibition

>>> reported_result("ClCC1CSC2(CCCCC2)O1 (stereo unspecified)")
"-13% (inactive)"
>>> reported_result("CC1CCN(CC(=O)N2c3ccccc3Sc3cc4ccccc4cc32)CC1")
"-4% (inactive)"
>>> reported_result("NC1C(=O)C2CCCCC2C(=O)C1C(=O)c1ccccc1 (stereo unspecified)")
"5% (inactive)"
>>> reported_result("N#CCCN(C(=S)Nc1cccc(C(F)(F)F)c1)C1CCCCC1")
"1% (inactive)"
>>> reported_result("CCCNC(=O)c1ccccc1")
"-5% (inactive)"
>>> reported_result("O=C1C(Br)=C(C2CCCCC2)C(=O)c2ccccc21")
"24% (inactive)"
